system: HL-60 cells; assay: HL-60 cell differentiation (nitro blue tetrazolium reduction); type: cell-based, human; conditions: Homo sapiens; differentiation of HL-60 cells into monocytes; FIG. 2
endpoint_label: EC50 (nM)
Numbers only here, please. The scale is nM.

Provide EC50 value for the following molecule: `C=C1[C@H](O)CC(=C/C=C2\CCC[C@]3(C)[C@@H]([C@H](C)/C=C/C[C@@H](C)O)CC[C@@H]23)C[C@H]1O`
0.2

====

molecular target: full-length recombinant rat vitamin D receptor (Rattus norvegicus, UniProt P13053); construct: Full-length recombinant rat receptor was expressed in E. coli; histidine tag (C); made in house; host or cells: E. coli BL21 (DE3) Codon Plus RIL; experiment: Vitamin D receptor competitive binding with [3H]-1,25(OH)2D3; conditions: full-length recombinant rat VDR; FIG. 1; read-out: Ki, competition with [3H]-1,25(OH)2D3 for binding to the vitamin D receptor
Sequence (P13053 whole entry): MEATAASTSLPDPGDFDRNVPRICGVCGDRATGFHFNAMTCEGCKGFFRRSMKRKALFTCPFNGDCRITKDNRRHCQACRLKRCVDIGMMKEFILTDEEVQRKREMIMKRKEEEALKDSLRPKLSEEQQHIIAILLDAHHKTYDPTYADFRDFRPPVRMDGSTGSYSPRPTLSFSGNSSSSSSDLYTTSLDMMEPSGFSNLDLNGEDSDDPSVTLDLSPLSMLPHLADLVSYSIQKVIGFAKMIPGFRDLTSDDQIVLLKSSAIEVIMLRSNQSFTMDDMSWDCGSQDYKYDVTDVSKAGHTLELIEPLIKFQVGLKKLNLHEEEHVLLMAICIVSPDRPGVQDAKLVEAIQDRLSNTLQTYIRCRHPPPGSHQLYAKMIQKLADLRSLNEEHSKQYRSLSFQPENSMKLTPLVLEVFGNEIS
endpoint_label: Ki (nM)
Give the value, in units of nM, as a plain number.

Tell us which Ki value is on record for C=C1[C@H](O)CC(=C/C=C2\CCC[C@]3(C)[C@@H]([C@H](C)/C=C/C[C@@H](C)O)CC[C@@H]23)C[C@H]1O [RR-22]
0.1
